tested on: RARb:RXRa (NR concentration 270 nM, RXRa partner concentration 90 nM); assay: PBM binding z-score (relative to random genomic background probes); higher = stronger binding; sequences stand for … in GC…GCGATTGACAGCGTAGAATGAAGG
assay_metric: PBM binding z-score

Worked examples, 5 sequences total:
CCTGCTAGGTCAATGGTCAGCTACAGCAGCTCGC; 3.58
AGAACGAGGGCCATGAGTTGATAGCACGGGTGGC; 0.632
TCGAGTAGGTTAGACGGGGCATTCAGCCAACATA; 0.612
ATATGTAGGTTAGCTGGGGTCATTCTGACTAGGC; 2.88
ATATGTAGGTTAGCTGGGTTCATTCAGACTAGGC; 1.35

API: the following record is the query input.
Prompt line: Any idea what PBM binding z-score was measured for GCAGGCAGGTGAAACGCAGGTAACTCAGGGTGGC ?
Response line: 0.562

* * *

Collected PBM binding z-score values appear next to each entry.
test system: PPARg:RXRa 30nM:10nM, anti-RXR (NR concentration 30 nM, RXRa partner concentration 10 nM); assay: PBM binding z-score (relative to random genomic background probes); higher = stronger binding; sequences stand for … in GC…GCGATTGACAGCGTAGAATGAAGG
// no unit, no text: just the number

Worked examples, 3 sequences total:
GTGACTGGGGCATCAGCAGGTTACCATAACTTAA; 0.217
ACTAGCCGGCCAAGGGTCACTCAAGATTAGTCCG; 3.35
AATACAGGCTCACTAGGCCAGAGTAGGTACGAAT; 0.027

Prompt line: Any idea what PBM binding z-score was measured for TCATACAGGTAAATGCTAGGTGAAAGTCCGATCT ?
Response line: 3.75

Prompt line: Input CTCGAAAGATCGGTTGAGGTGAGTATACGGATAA
Response line: -0.244

Prompt line: Input GCTACTAGGTCAGGTTGGTCAGCTAACGGGTACG
Response line: 0.868

Prompt line: Input ATATCAAGGTGATCGTGAGGTCGTTGATACTAAC
Response line: 0.0904

Prompt line: Input ATACCAAGGGGATCGTGAGGTCGTTGATACTAAC
Response line: -0.375

Prompt line: Input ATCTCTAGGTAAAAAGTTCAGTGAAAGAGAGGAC
Response line: 2.6

* * *

test system: VDR:RXRa (NR concentration 270 nM, RXRa partner concentration 90 nM); assay: PBM binding z-score (relative to random genomic background probes); higher = stronger binding; sequences stand for … in GC…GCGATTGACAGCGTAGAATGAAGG
assay_metric: PBM binding z-score
// no unit, no text: just the number

Worked examples, 2 sequences total:
ACTAGCAGGCCAAGTTTGGGTCACTCAGACAAAG; 0.43
TCTGTTAGTTGAAGGGCAACCGACGAGTCCGTTT; 0.902

Prompt line: Any idea what PBM binding z-score was measured for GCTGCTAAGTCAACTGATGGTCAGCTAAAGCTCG ?
Response line: -0.619

Prompt line: Input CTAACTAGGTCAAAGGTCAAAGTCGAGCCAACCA
Response line: 6.59

Prompt line: Input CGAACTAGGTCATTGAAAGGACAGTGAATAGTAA
Response line: 2.36

Prompt line: Input TAGCCTAGGTCTTTCAGGGGCCAGTATAGAAAGC
Response line: -0.481

Prompt line: Input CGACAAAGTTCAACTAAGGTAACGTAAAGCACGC
Response line: 4.67

Prompt line: Input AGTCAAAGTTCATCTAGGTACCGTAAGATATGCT
Response line: 4.98

Prompt line: Input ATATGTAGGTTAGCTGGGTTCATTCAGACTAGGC
Response line: 6.4

Prompt line: Input GCGACTGGGGCAAAGCAGGTTACGATAAGGTTGG
Response line: 0.0646

Prompt line: Input CGTCAAAGTTCAAGGTAACGTAACAGAAAGCAGC
Response line: 3.78

Prompt line: Input ACTAGCAGGCCAATTTTGGGTCACTCAAACAAAG
Response line: 0.456
